- TARGET OR SYSTEM: cynomolgus IL-1beta (cynomolgus, UniProt P79182 117-268)
- PROTOCOL TEXT: SPR (BIAcore); antibody captured by anti-Fc, IL-1beta injected
ASSAY READOUT: koff (s⁻¹)
Answer format: numeric, s⁻¹ implied, no suffix.

Reference set (2 entries):
Canakinumab (antibody, V domains shown) VH: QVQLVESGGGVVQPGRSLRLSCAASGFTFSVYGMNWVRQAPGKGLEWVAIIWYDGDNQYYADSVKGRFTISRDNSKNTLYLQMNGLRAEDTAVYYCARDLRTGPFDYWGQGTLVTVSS VL: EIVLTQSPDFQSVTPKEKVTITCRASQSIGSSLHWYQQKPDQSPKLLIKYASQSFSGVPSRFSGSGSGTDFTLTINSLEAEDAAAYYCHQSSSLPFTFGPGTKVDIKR    0.0284
huH34-3 (antibody, V domains shown, VH = 11 and VL = 16 read by analogy with huH34-2) VH: QVQLVQSGAEVKKPGASVKVSCKASGYTFTGYYMHWVRQAPGQGLEWIGYISSYSAFTTYNQKFRGRATFTVDTSISTAYMELSRLRSDDTAVYYCVRSDYYGTSLYWGQGTLVTVSS VL: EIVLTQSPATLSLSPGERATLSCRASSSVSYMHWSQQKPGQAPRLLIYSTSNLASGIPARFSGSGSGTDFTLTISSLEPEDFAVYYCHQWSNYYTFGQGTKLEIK    0.000491

# binder huH34-1 (antibody, V domains shown, VH = 01 and VL = 16 read by analogy with huH34-2 (VH 06, VL 16); Humanized) VH: QVQLVQSGAEVKKPGASVKVSCKASGYTFTGYYMHWVRQAPGQGLEWMGYISSYSGFTTYAQKFQGRVTMTRDTSISTAYMELSRLRSDDTAVYYCARSDYYGTSLYWGQGTLVTVSS VL: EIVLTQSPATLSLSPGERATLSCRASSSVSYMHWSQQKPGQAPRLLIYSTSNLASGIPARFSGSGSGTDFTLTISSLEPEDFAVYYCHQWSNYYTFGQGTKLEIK ; its koff = 0.00212
